Target: cerebellar granule neurones
Assay type: cell-based, rat
Conditions: 48 h
readout: EC50

May I ask what EC50 has been recorded for H-SQEPPISLDLTFHLLREVLEMTKADQLAQQAHNNRKLLDIA-NH2 [CRF] ? ~10 nM

Origin of the recorded values: patent US20080113908A1
